tested on: Mus musculus; assay: Compound was tested in vivo for efficacy in athymic mice bearing HCT116 subcutaneous tumor xenografts at a dose of 10 mg/kg and change in the body weight of the mouse was evaluated; assay type: functional; conditions: route intravenous
MEASURED METRIC: Body weight change (%)
Use % as the unit, but write only the number.

Solved cases below.
INSERT INTO assay_data (item_smiles, system, measured_metric, unit_spec, quantitative_readout) VALUES
  ('O=C(/C=C/c1ccc(CN(CCO)CCc2c[nH]c3ccccc23)cc1)NO', 'Mus musculus', 'Body weight change', '%', 2.7),
  ('O=C(/C=C/c1ccc(CNCCc2c[nH]c3ccccc23)cc1)NO', 'Mus musculus', 'Body weight change', '%', -10.2),
  ('O=C(/C=C/c1ccc(CNCCc2c[nH]c3ccc(F)cc23)cc1)NO', 'Mus musculus', 'Body weight change', '%', -6.4);

Pending compound:
API: value(readout= Body weight change, system= Mus musculus, query= COc1ccc2[nH]cc(CCNCc3ccc(/C=C/C(=O)NO)cc3)c2c1 ) -4.6

Reference source: ChEMBL document CHEMBL1145132
